System: Hepatitis C virus
Experiment: Inhibition of HCV genotype 1b NS3 protease V36A mutant expressed in Escherichia coli BL21 (DE3)
Design: species or system Hepatitis C virus subtype 1b
pIC50: −log10 of the molar value.

chemical.smiles | assayed.system | pIC50
CCC[C@H](NC(=O)[C@@H]1[C@H]2CCC[C@H]2CN1C(=O)[C@@H](NC(=O)[C@@H](NC(=O)c1cnccn1)C1CCCCC1)C(C)(C)C)C(=O)C(=O)NC1CC1 | Hepatitis C virus | 6.64

====

# pEC50 annotations
System: Hepatitis C virus
Test: Antiviral activity against HCV Con1-mADE replicon with NS3 serine protease V36M mutation in human HuH7 cells after 48 hrs by RNA replicon assay
Assay type: functional, organism-based, Hepacivirus hominis
Conditions: subtype 1b Con1-mADE, Huh-7, 48 h
pEC50: −log10 of the molar value.

chemical.smiles | pEC50
NC(=O)c1ncn([C@@H]2O[C@H](CO)[C@@H](O)[C@H]2O)n1 | 4.48
CCC[C@H](NC(=O)[C@@H]1[C@H]2CCC[C@H]2CN1C(=O)[C@@H](NC(=O)[C@@H](NC(=O)c1cnccn1)C1CCCCC1)C(C)(C)C)C(=O)C(=O)NC1CC1 | 5.47

====

Tested on: Hepatitis C virus
Test: Antiviral activity against HCV Con1-mADE replicon with NS3 serine protease V36A/R155K double mutation in human HuH7 cells after 48 hrs by RNA replicon assay
Assay type: functional, organism-based, Hepacivirus hominis
Conditions: subtype 1b Con1-mADE, Huh-7, 48 h
pEC50: −log10 of the molar value.

chemical.smiles | assayed.system | pEC50
NC(=O)c1ncn([C@@H]2O[C@H](CO)[C@@H](O)[C@H]2O)n1 | Hepatitis C virus | 4.44
CCC[C@H](NC(=O)[C@@H]1[C@H]2CCC[C@H]2CN1C(=O)[C@@H](NC(=O)[C@@H](NC(=O)c1cnccn1)C1CCCCC1)C(C)(C)C)C(=O)C(=O)NC1CC1 | Hepatitis C virus | 4.70

====

System: Hepatitis C virus
Assay: Antiviral activity against HCV Con1-mADE replicon with NS3 serine protease V36L mutation in human HuH7 cells after 48 hrs by RNA replicon assay
Type: functional, organism-based, Hepacivirus hominis
Conditions: subtype 1b Con1-mADE, Huh-7, 48 h
pEC50: −log10 of the molar value.
measured.quantity: pEC50

chemical.smiles | measured.quantity | endpoint.value
CCC[C@H](NC(=O)[C@@H]1[C@H]2CCC[C@H]2CN1C(=O)[C@@H](NC(=O)[C@@H](NC(=O)c1cnccn1)C1CCCCC1)C(C)(C)C)C(=O)C(=O)NC1CC1 | pEC50 | 5.96

====

Tested on: Hepatitis C virus
Assay: Antiviral activity against HCV Con1-mADE replicon with NS3 serine protease V36A/T54A double mutation in human HuH7 cells after 48 hrs by RNA replicon assay
Format: functional, organism-based, Hepacivirus hominis
Settings: subtype 1b Con1-mADE, Huh-7, 48 h
pEC50: −log10 of the molar value.
measured.quantity: pEC50

chemical.smiles | endpoint.value
CCC[C@H](NC(=O)[C@@H]1[C@H]2CCC[C@H]2CN1C(=O)[C@@H](NC(=O)[C@@H](NC(=O)c1cnccn1)C1CCCCC1)C(C)(C)C)C(=O)C(=O)NC1CC1 | 5.01

====

Biological target: NS3 protease (Hepacivirus C, UniProt C1KIQ2, V36M)
Sequence (C1KIQ2 entry or part of it V36M): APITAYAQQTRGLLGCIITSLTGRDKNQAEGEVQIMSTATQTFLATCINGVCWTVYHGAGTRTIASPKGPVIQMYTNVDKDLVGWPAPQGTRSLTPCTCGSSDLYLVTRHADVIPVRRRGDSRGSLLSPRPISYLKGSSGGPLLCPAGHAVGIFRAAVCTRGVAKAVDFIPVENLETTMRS
Assay: Inhibition of HCV genotype 1a NS3 protease V36M mutant expressed in Escherichia coli BL21 (DE3)
measured.quantity: IC50

chemical.smiles | measured.quantity | endpoint.value
CCC[C@H](NC(=O)[C@@H]1[C@H]2CCC[C@H]2CN1C(=O)[C@@H](NC(=O)[C@@H](NC(=O)c1cnccn1)C1CCCCC1)C(C)(C)C)C(=O)C(=O)NC1CC1 | IC50 | 270 nM
